Test system: HCT-116
Assay: Cytotoxicity against human HCT116 cells after 4 days by MTT assay
Type: functional, cell-based
Conditions: HCT-116, 96 h
Recorded metric: IC50
Answer by giving the amount and then stating its unit.

Consider the following illustrative entries.
smi=COc1cc2c(cc1O)CCN(C(=O)/C=C/c1ccccc1)[C@]21CS[C@@H]2c3c(OC(C)=O)c(C)c4c(c3[C@@H](COC1=O)N1[C@@H]2[C@H]2c3c(cc(C)c(OC)c3O)C[C@@H]([C@@H]1C#N)N2C)OCO4 result="0.053 nM"
smi=COc1cc2c(cc1O)CCN(C(=O)c1c[nH]c3ccccc13)[C@]21CS[C@@H]2c3c(OC(C)=O)c(C)c4c(c3[C@@H](COC1=O)N1[C@@H]2[C@H]2c3c(cc(C)c(OC)c3O)C[C@@H]([C@@H]1C#N)N2C)OCO4 result="0.16 nM"
smi=C=CCOc1cc2c(cc1OC)[C@@]1(CS[C@@H]3c4c(OC(C)=O)c(C)c5c(c4[C@@H](COC1=O)N1[C@@H]3[C@H]3c4c(cc(C)c(OC)c4OCC=C)C[C@@H]([C@@H]1C#N)N3C)OCO5)N(C(=O)c1cccc([N+](=O)[O-])c1)CC2 result="180 nM"

The record that follows has no IC50 shown yet.
Asked: I am curious: what IC50 value has been reported for C=CCOc1cc2c(cc1OC)[C@@]1(CS[C@@H]3c4c(OC(C)=O)c(C)c5c(c4[C@@H](COC1=O)N1[C@@H]3[C@H]3c4c(cc(C)c(OC)c4OCC=C)C[C@@H]([C@@H]1C#N)N3C)OCO5)N(C(=O)c1ccc(Br)cc1)CC2 ?
Given back: 480 nM

====

System: HCT-116
Assay: Cytotoxicity against human HCT116 cells after 4 days by MTT assay
Format: functional, cell-based
Conditions: HCT-116, 96 h
Provide the recorded IC50 for the entries that follow.
Numbers only, in nM.

smi=C=CCOc1cc2c(cc1OC)[C@@]1(CS[C@@H]3c4c(OC(C)=O)c(C)c5c(c4[C@@H](COC1=O)N1[C@@H]3[C@H]3c4c(cc(C)c(OC)c4OCC=C)C[C@@H]([C@@H]1C#N)N3C)OCO5)N(C(=O)c1cccnc1)CC2 study_target=HCT-116 units_text=nM quantitative_result=390
smi=C=CCOc1cc2c(cc1OC)[C@@]1(CS[C@@H]3c4c(OC(C)=O)c(C)c5c(c4[C@@H](COC1=O)N1[C@@H]3[C@H]3c4c(cc(C)c(OC)c4OCC=C)C[C@@H]([C@@H]1C#N)N3C)OCO5)N(C(=O)c1ccccc1)CC2 study_target=HCT-116 units_text=nM quantitative_result=190
smi=COc1cc2c(cc1O)CCN(C(=O)/C=C/c1ccc([N+](=O)[O-])cc1)[C@]21CS[C@@H]2c3c(OC(C)=O)c(C)c4c(c3[C@@H](COC1=O)N1[C@@H]2[C@H]2c3c(cc(C)c(OC)c3O)C[C@@H]([C@@H]1C#N)N2C)OCO4 study_target=HCT-116 units_text=nM quantitative_result=0.6
smi=C=CCOc1cc2c(cc1OC)[C@@]1(CS[C@@H]3c4c(OC(C)=O)c(C)c5c(c4[C@@H](COC1=O)N1[C@@H]3[C@H]3c4c(cc(C)c(OC)c4OCC=C)C[C@@H]([C@@H]1C#N)N3C)OCO5)N(C(=O)/C=C/c1ccc([N+](=O)[O-])cc1)CC2 study_target=HCT-116 units_text=nM quantitative_result=520
smi=C=CCOc1cc2c(cc1OC)[C@@]1(CS[C@@H]3c4c(OC(C)=O)c(C)c5c(c4[C@@H](COC1=O)N1[C@@H]3[C@H]3c4c(cc(C)c(OC)c4OCC=C)C[C@@H]([C@@H]1C#N)N3C)OCO5)N(C(=O)c1ccncc1)CC2 study_target=HCT-116 units_text=nM quantitative_result=280

Value sought for every listed compound: IC50.
1. COc1cc2c(cc1O)CCN(C(=O)c1ccncc1)[C@]21CS[C@@H]2c3c(OC(C)=O)c(C)c4c(c3[C@@H](COC1=O)N1[C@@H]2[C@H]2c3c(cc(C)c(OC)c3O)C[C@@H]([C@@H]1C#N)N2C)OCO4
2. C=CCN1CCc2cc(O)c(OC)cc2[C@@]12CS[C@@H]1c3c(OC(C)=O)c(C)c4c(c3[C@@H](COC2=O)N2[C@@H]1[C@H]1c3c(cc(C)c(OC)c3O)C[C@@H]([C@@H]2C#N)N1C)OCO4
3. C=CCOc1cc2c(cc1OC)[C@@]1(CS[C@@H]3c4c(OC(C)=O)c(C)c5c(c4[C@@H](COC1=O)N1[C@@H]3[C@H]3c4c(cc(C)c(OC)c4OCC=C)C[C@@H]([C@@H]1C#N)N3C)OCO5)N(C(=O)c1ccnc3ccccc13)CC2

Given back:
0.045
0.5
310

Value sought for every listed compound: IC50.
1. COc1cc2c(cc1O)CCN(C(=O)c1ccc3ncccc3c1)[C@]21CS[C@@H]2c3c(OC(C)=O)c(C)c4c(c3[C@@H](COC1=O)N1[C@@H]2[C@H]2c3c(cc(C)c(OC)c3O)C[C@@H]([C@@H]1C#N)N2C)OCO4
2. C=CCOc1cc2c(cc1OC)[C@@]1(CS[C@@H]3c4c(OC(C)=O)c(C)c5c(c4[C@@H](COC1=O)N1[C@@H]3[C@H]3c4c(cc(C)c(OC)c4O)C[C@@H]([C@@H]1C#N)N3C)OCO5)NCC2
3. COc1cc2c(cc1O)CCN(C(=O)c1ccnc3ccccc13)[C@]21CS[C@@H]2c3c(OC(C)=O)c(C)c4c(c3[C@@H](COC1=O)N1[C@@H]2[C@H]2c3c(cc(C)c(OC)c3O)C[C@@H]([C@@H]1C#N)N2C)OCO4
4. C=CCOc1cc2c(cc1OC)[C@@]1(CS[C@@H]3c4c(OC(C)=O)c(C)c5c(c4[C@@H](COC1=O)N1[C@@H]3[C@H]3c4c(cc(C)c(OC)c4OCC=C)C[C@@H]([C@@H]1C#N)N3C)OCO5)N(C(=O)c1c[nH]c3ccccc13)CC2
5. C=CCOc1cc2c(cc1OC)[C@@]1(CS[C@@H]3c4c(OC(C)=O)c(C)c5c(c4[C@@H](COC1=O)N1[C@@H]3[C@H]3c4c(cc(C)c(OC)c4OCC=C)C[C@@H]([C@@H]1C#N)N3C)OCO5)NCC2

Given back:
[0.045, 2.4, 0.067, 0.45, 54]
